systemTested: UniProtKB P17612
experimentalDetails: SDR assay, PKA-N-HiBiT
readoutName: pEC50
// scale note: pEC50 = -log10(conc_M); give the bare number

c1cc(-c2cc(C3CCNCC3)[nH]n2)ccn1 [ETP 45835 2HCl]    5.08
Cc1cc(O)c2c(c1)C(=O)c1cc(O)cc(O)c1C2=O [Emodin]    4.85

// below: pEC50 requested for another compound
Prompt line: I have this compound here, Cn1cc(-c2[nH]c3cc(NC(=O)[C@H](N)C4CCCCC4)cc4c3c2C=NNC4=O)cn1 [PF-477736] , and I need its recorded pEC50.
Response line: 5.90
